- Tested on: Aspergillus terreus
- PROTOCOL: Antifungal activity against Aspergillus terreus at 1 mg/ml after 72 hr by agar well diffusion method
- Format: functional
- RECORDED CONDITIONS: read-out: IZ
Reported zone of inhibition at 1000 µg/mL values for the following molecules.
State just the number; it will be interpreted in mm.

As a guide, the following entries are already answered.
OC(Cn1cncn1)(Cn1cncn1)c1ccc(F)cc1F = 15
Cc1ccc2[nH]c(-c3ccccc3)c(-c3nc(NN)nc(NN)c3C#N)c2c1 = 11
Cc1ccc2[nH]c(-c3ccccc3)c(-c3[nH]c(=S)[nH]c(=O)c3C#N)c2c1 = 11
N#Cc1c(-c2c(-c3ccccc3)[nH]c3ccc(Cl)cc23)n2nnnc2n2nnnc12 = 11
Cc1ccc2[nH]c(-c3ccccc3)c(-c3c(C#N)c4nnnn4c4nnnn34)c2c1 = 12

Enquiry: // lookup zone of inhibition at 1000 µg/mL for N#Cc1c(-c2c(-c3ccccc3)[nH]c3ccccc23)[nH]c(=S)[nH]c1=O
Return: 10

Enquiry: // lookup zone of inhibition at 1000 µg/mL for Cc1ccc2[nH]c(-c3ccccc3)c(-c3[nH]c(=S)[nH]c(=S)c3C#N)c2c1
Return: 10

Enquiry: // lookup zone of inhibition at 1000 µg/mL for N#Cc1c(NN)nc(NN)nc1-c1c(-c2ccccc2)[nH]c2ccc(Cl)cc12
Return: 10

Enquiry: // lookup zone of inhibition at 1000 µg/mL for Cc1ccc2[nH]c(-c3ccccc3)c(-c3nc(NN)nc4[nH]nc(N)c34)c2c1
Return: 10

###

- Tested on: Pseudomonas aeruginosa
- PROTOCOL: Antibacterial activity against Pseudomonas aeruginosa at 1 mg/ml after 24 hr by agar well diffusion method
- Type: functional
- RECORDED CONDITIONS: read-out: IZ
Reported zone of inhibition at 1000 µg/mL values for the following compounds.
State just the number; it will be interpreted in mm.

As a guide, the following entries are already answered.
N#Cc1c(-c2c(-c3ccccc3)[nH]c3ccccc23)[nH]c(=S)[nH]c1=O = 11
Cc1ccc2[nH]c(-c3ccccc3)c(-c3[nH]c(=S)[nH]c(=S)c3C#N)c2c1 = 10
N#Cc1c(NN)nc(NN)nc1-c1c(-c2ccccc2)[nH]c2ccc(Cl)cc12 = 13
Cc1ccc2[nH]c(-c3ccccc3)c(-c3[nH]c(=S)[nH]c(=O)c3C#N)c2c1 = 10
Cc1ccc2[nH]c(-c3ccccc3)c(-c3nc(NN)nc(NN)c3C#N)c2c1 = 10

Now let's try a different one.
Enquiry: // lookup zone of inhibition at 1000 µg/mL for NNc1nc(-c2c(-c3ccccc3)[nH]c3ccccc23)c2c(N)n[nH]c2n1
Return: 11

###

- Tested on: Aspergillus terreus
- PROTOCOL: Antifungal activity against Aspergillus terreus at 1 mg/ml after 72 hr by agar well diffusion method
- Assay type: functional
- RECORDED CONDITIONS: read-out: IZ
Reported zone of inhibition at 1000 µg/mL values for the following molecules.
State just the number; it will be interpreted in mm.

N#Cc1c(-c2c(-c3ccccc3)[nH]c3ccc(Cl)cc23)[nH]c(=S)[nH]c1=O = 9

Enquiry: // lookup zone of inhibition at 1000 µg/mL for N#Cc1c(-c2c(-c3ccccc3)[nH]c3ccccc23)n2nnnc2n2nnnc12
Return: 10

Enquiry: // lookup zone of inhibition at 1000 µg/mL for N#Cc1c(-c2c(-c3ccccc3)[nH]c3ccccc23)[nH]c(=S)[nH]c1=S
Return: 11

Enquiry: // lookup zone of inhibition at 1000 µg/mL for NNc1nc(-c2c(-c3ccccc3)[nH]c3ccc(Cl)cc23)c2c(N)n[nH]c2n1
Return: 10

Enquiry: // lookup zone of inhibition at 1000 µg/mL for N#Cc1c(NN)nc(NN)nc1-c1c(-c2ccccc2)[nH]c2ccccc12
Return: 11

Enquiry: // lookup zone of inhibition at 1000 µg/mL for N#Cc1c(-c2c(-c3ccccc3)[nH]c3ccc(Cl)cc23)[nH]c(=S)[nH]c1=S
Return: 10

Enquiry: // lookup zone of inhibition at 1000 µg/mL for NNc1nc(-c2c(-c3ccccc3)[nH]c3ccccc23)c2c(N)n[nH]c2n1
Return: 10

###

- System: Aspergillus niger
- PROTOCOL: Antifungal activity against Aspergillus niger at 1 mg/ml after 72 hr by agar well diffusion method
- Type: functional
- RECORDED CONDITIONS: read-out: IZ
Reported zone of inhibition at 1000 µg/mL values for the following molecules.
State just the number; it will be interpreted in mm.

As a guide, the following entries are already answered.
N#Cc1c(NN)nc(NN)nc1-c1c(-c2ccccc2)[nH]c2ccccc12 = 10
Cc1ccc2[nH]c(-c3ccccc3)c(-c3nc(NN)nc4[nH]nc(N)c34)c2c1 = 10
Cc1ccc2[nH]c(-c3ccccc3)c(-c3[nH]c(=S)[nH]c(=O)c3C#N)c2c1 = 13
Cc1ccc2[nH]c(-c3ccccc3)c(-c3c(C#N)c4nnnn4c4nnnn34)c2c1 = 9

Enquiry: // lookup zone of inhibition at 1000 µg/mL for NNc1nc(-c2c(-c3ccccc3)[nH]c3ccccc23)c2c(N)n[nH]c2n1
Return: 12

Enquiry: // lookup zone of inhibition at 1000 µg/mL for N#Cc1c(-c2c(-c3ccccc3)[nH]c3ccccc23)[nH]c(=S)[nH]c1=O
Return: 10

Enquiry: // lookup zone of inhibition at 1000 µg/mL for N#Cc1c(-c2c(-c3ccccc3)[nH]c3ccccc23)[nH]c(=S)[nH]c1=S
Return: 11

###

- Test system: Aspergillus niger
- PROTOCOL: Antifungal activity against Aspergillus niger at 1 mg/ml after 72 hr by agar well diffusion method
- Format: functional
- RECORDED CONDITIONS: read-out: IZ
MEASURED ENDPOINT: zone of inhibition at 1000 µg/mL (mm)
State just the number; it will be interpreted in mm.

As a guide, the following entries are already answered.
Cc1ccc2[nH]c(-c3ccccc3)c(-c3[nH]c(=S)[nH]c(=S)c3C#N)c2c1 = 9
Cc1ccc2[nH]c(-c3ccccc3)c(-c3nc(NN)nc(NN)c3C#N)c2c1 = 11
NNc1nc(-c2c(-c3ccccc3)[nH]c3ccc(Cl)cc23)c2c(N)n[nH]c2n1 = 9
N#Cc1c(-c2c(-c3ccccc3)[nH]c3ccc(Cl)cc23)n2nnnc2n2nnnc12 = 13
N#Cc1c(-c2c(-c3ccccc3)[nH]c3ccc(Cl)cc23)[nH]c(=S)[nH]c1=O = 10
N#Cc1c(NN)nc(NN)nc1-c1c(-c2ccccc2)[nH]c2ccc(Cl)cc12 = 8
OC(Cn1cncn1)(Cn1cncn1)c1ccc(F)cc1F = 14
N#Cc1c(-c2c(-c3ccccc3)[nH]c3ccc(Cl)cc23)[nH]c(=S)[nH]c1=S = 11

Now let's try a different one.
Enquiry: // lookup zone of inhibition at 1000 µg/mL for N#Cc1c(-c2c(-c3ccccc3)[nH]c3ccccc23)n2nnnc2n2nnnc12
Return: 10

###

Reported zone of inhibition at 1000 µg/mL values for the following compounds.
- Tested on: Pseudomonas aeruginosa
- PROTOCOL: Antibacterial activity against Pseudomonas aeruginosa at 1 mg/ml after 24 hr by agar well diffusion method
- Format: functional
- RECORDED CONDITIONS: read-out: IZ
State just the number; it will be interpreted in mm.

N#Cc1c(-c2c(-c3ccccc3)[nH]c3ccc(Cl)cc23)n2nnnc2n2nnnc12 = 12
NNc1nc(-c2c(-c3ccccc3)[nH]c3ccc(Cl)cc23)c2c(N)n[nH]c2n1 = 13

Enquiry: // lookup zone of inhibition at 1000 µg/mL for N#Cc1c(-c2c(-c3ccccc3)[nH]c3ccccc23)n2nnnc2n2nnnc12
Return: 14

Enquiry: // lookup zone of inhibition at 1000 µg/mL for N#Cc1c(-c2c(-c3ccccc3)[nH]c3ccc(Cl)cc23)[nH]c(=S)[nH]c1=S
Return: 10

Enquiry: // lookup zone of inhibition at 1000 µg/mL for Cc1ccc2[nH]c(-c3ccccc3)c(-c3c(C#N)c4nnnn4c4nnnn34)c2c1
Return: 10

Enquiry: // lookup zone of inhibition at 1000 µg/mL for N#Cc1c(-c2c(-c3ccccc3)[nH]c3ccc(Cl)cc23)[nH]c(=S)[nH]c1=O
Return: 10

Enquiry: // lookup zone of inhibition at 1000 µg/mL for N#Cc1c(-c2c(-c3ccccc3)[nH]c3ccccc23)[nH]c(=S)[nH]c1=S
Return: 7

Enquiry: // lookup zone of inhibition at 1000 µg/mL for Cc1ccc2[nH]c(-c3ccccc3)c(-c3nc(NN)nc4[nH]nc(N)c34)c2c1
Return: 12

Enquiry: // lookup zone of inhibition at 1000 µg/mL for N#Cc1c(NN)nc(NN)nc1-c1c(-c2ccccc2)[nH]c2ccccc12
Return: 10

Origin of measurements: ChEMBL document CHEMBL3045335
